Biological target: T1, hiR2-FL-E557D-T7 (human, UniProt Q6PJF5 1-856)
T1 sequence: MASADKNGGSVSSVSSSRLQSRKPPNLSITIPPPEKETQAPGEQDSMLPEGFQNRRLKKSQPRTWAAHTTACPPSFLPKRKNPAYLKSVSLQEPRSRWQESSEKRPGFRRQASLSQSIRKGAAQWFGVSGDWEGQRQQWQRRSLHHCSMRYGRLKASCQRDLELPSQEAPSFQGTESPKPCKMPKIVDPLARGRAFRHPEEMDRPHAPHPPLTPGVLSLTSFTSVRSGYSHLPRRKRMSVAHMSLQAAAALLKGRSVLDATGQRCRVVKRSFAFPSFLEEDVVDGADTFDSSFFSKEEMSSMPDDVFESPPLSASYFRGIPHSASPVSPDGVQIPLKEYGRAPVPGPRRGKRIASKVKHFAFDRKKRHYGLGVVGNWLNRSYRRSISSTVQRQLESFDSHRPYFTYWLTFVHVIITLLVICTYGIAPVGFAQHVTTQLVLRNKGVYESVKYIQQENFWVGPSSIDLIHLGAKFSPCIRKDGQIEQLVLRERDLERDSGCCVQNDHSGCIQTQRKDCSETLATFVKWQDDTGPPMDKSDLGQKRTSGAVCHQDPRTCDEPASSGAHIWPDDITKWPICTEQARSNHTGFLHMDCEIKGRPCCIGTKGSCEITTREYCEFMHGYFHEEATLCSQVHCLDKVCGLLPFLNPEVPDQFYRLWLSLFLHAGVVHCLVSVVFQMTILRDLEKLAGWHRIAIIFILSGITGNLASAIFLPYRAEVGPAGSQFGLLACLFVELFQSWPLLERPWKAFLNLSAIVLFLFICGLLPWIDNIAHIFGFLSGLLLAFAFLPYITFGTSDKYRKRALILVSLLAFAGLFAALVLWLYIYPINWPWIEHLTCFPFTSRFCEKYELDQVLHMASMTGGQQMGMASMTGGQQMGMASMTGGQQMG
Experiment: FACS, MEF-DKO cells, 3 µg/ml
Metric: loss of binding vs wild type

>>> result("antibody 44 (antibody, V domains shown, mouse IgG, kappa light chain; also called clone #44; purified antibody 44) VH: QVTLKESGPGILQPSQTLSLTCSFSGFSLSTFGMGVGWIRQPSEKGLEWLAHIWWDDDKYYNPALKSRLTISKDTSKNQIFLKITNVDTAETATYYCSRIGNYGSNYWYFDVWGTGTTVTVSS VL: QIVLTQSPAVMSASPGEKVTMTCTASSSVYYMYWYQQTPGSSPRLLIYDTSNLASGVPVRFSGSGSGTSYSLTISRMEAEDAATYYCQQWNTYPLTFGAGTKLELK")
"≥ 30%"
>>> result("antibody 42 (antibody, V domains shown, mouse IgG, kappa light chain; also called clone #42; purified antibody 42) VH: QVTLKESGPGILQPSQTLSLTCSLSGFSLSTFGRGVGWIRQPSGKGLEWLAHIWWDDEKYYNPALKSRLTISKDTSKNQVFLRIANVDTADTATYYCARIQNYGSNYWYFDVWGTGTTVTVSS VL: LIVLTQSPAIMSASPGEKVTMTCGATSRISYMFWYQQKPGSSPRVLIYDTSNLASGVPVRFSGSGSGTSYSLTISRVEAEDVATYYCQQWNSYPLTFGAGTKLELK")
"≥ 30%"
>>> result("antibody 5 (antibody, V domains shown, mouse IgG, kappa light chain; also called clone #5; purified antibody 5) VH: QVTLKESGPGILQPSQTLSLTCSFSGFSLSTFGMGVGWIRQPSGKGLEWLAHIWWDDEKYYNSALKSRLTISKATSKNQAFLKIANVDTADTATYYCARISNYGSNYWYFNVWGTGTTVTVSS VL: QVVLTQSPALMSASPGEKVTMTCSAGSSVSCMYWYQQKPGSSPRVLIYDTSNLASGVPARFTGSGSGTSYSLTISRMEAEDAASYYCQQWNSYPLTFGAGTKLELK")
"≥ 60%"
>>> result("antibody 34 (antibody, V domains shown, mouse IgG, kappa light chain; also called clone #34; purified antibody 34) VH: QVTLKESGPGILQPSQTLSLTCSFSGFSLSTFSLGVGWIRQSSGKGLEWLAHIWWDDEKYYNPALKSRLTISKDTSKNQVFLKIANVDAADTATYYCARAYYSKSYYALDYWGQGTSVTVSS VL: DIQMTQSPSSLSASLGERVSLTCRASQEISGYLSWLQQKPDGTIKRLIYAASTLDSGVPKRFSGSRSGSDYSLAISSLESEDFADYYCLQYANFPFTFGSGTKLEIK")
"≥ 60%"
>>> result("antibody 3 (antibody, V domains shown, mouse IgG, kappa light chain; also called clone #3; purified antibody 3) VH: QVTLKESGPGILQPSQTLSLTCSFSGFSLTTFAMGIGWVRQPSGKGLEWLAHIWWDGEKYNNPVLKSRLTISKDTSKNQVFLRIANVDTPDTATYYCARISSIYYIIDNWGQGTSVTVSS VL: DIVLTQSPATLSVTPGHSVSLSCRASQSISNNLHWYQKKSHESPRLLIKYVSQSISGIPSRFSGSGSGTDFTLSINSVETEDFGMYFCQQSYNWPLTFGAGTKLELK")
"≥ 60%"
